# Experimental target: Phosphodiesterase 3 (Homo sapiens, UniProt Q14432+Q13370)
# Experiment: In vitro inhibition of cyclic AMP phosphodiesterase from human platelets
For each of the compounds below, state its IC50.
Give the quantity in nM, number only.

Reported IC50 ( O=C1CN2Cc3cc(OCCCC(=O)N4CCOCC4)ccc3N=C2N1 ) = 1600

The compound identified as O=C1CN2Cc3cc(OCCCC(=O)OC4CCCCC4)ccc3N=C2N1 registered its IC50 at 18

What the record says about CN(C(=O)CCCCCOc1ccc2c(c1)CN1CC(=O)NC1=N2)C1CCCCC1 : IC50 is 12

Form field IC50, entry CN(C(=O)CCCCc1ccc2c(c1)CN1CC(=O)NC1=N2)C1CCCCC1 : 200

Looking up O=C(O)CCCOc1ccc2c(c1)CN1CC(=O)NC1=N2 , I see its IC50 listed as 280
